Molecular target: T1, PSD-95 PDZ domain 2 (PSD-95-2), as used for fluorescence polarisation (rat)
T1 construct: also called PSD-95 second PDZ domain; source: E. coli, purified
T1 chain: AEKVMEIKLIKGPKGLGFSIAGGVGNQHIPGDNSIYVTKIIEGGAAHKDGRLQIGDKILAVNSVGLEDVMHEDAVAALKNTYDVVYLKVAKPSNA
Assay: fluorescence polarisation; competitive titration: ETWV or stargazin monovalent peptide against the complex of 50 nM FITC monovalent stargazin peptide with 24 µM PSD-95-2
Details: both partners purified
Ends that are not written are not given here.
Endpoint label: Ki (µM)
Answers are plain numbers, in µM.

Which measured Ki value corresponds to Ac-DSLHANTANRRTTPV [acetylated monovalent stargazin peptide] ?
8.6
